- study_target: Cytochrome P450 1A2 (Homo sapiens)
- test_summary: Cytochrome panel assay with activity outcomes; further: on the % scale 0 is the no-effect control and ±100 the full control effect
- cond: recombinant CYP, pro-luciferin dealkylation, luminescence, p450-cyp1a2; series mostly up to 57.1 µM
About 5,700 (36%) of roughly 16,000 compounds were called active. Another 24% or so got no clear call; they are omitted. Some of the results follow.
Quick list: activity, negative = inhibition per entry.

Answered cases to consult:
{"structure": "CC(=O)OC[C@@H]1O[C@@H](O/N=C2/C[C@@H](O)[C@@H](O)[C@@H]3[C@H]4C(=O)N(c5ccc(F)cc5F)C(=O)[C@@H]4CC[C@H]23)[C@H](OC(C)=O)[C@H](OC(C)=O)[C@@H]1OC(C)=O", "study_target": "Cytochrome P450 1A2 (Homo sapiens)", "activity, negative = inhibition": "-3.19% [at 11.4 µM] (inactive)"}
{"structure": "Cc1ccc(S(=O)(=O)N[C@H]2COC(=O)C/C=C\\[C@H](C)[C@@H](NS(=O)(=O)c3ccc(C)cc3)COC(=O)C/C=C\\[C@@H]2C)cc1", "study_target": "Cytochrome P450 1A2 (Homo sapiens)", "activity, negative = inhibition": "-10.6% [at 11.4 µM] (inactive)"}
{"structure": "CC[C@@H](Nc1ncnc2nc[nH]c12)C(=O)O", "study_target": "Cytochrome P450 1A2 (Homo sapiens)", "activity, negative = inhibition": "-2.91% [at 11.4 µM] (inactive)"}
{"structure": "Nc1nc(Cl)cc(NCCO)n1", "study_target": "Cytochrome P450 1A2 (Homo sapiens)", "activity, negative = inhibition": "-22.6% [at 11.4 µM] (inactive)"}

Next up:
Looking up `C[C@@H](N=C(N)N)C(=O)O` , I found its activity, negative = inhibition recorded as -4.5% [at 11.4 µM] (inactive)
